- assay summary: Dog PK following IV and oral dosing
- Assay type: in vivo, male Beagle dogs
- measurement parameters: male, Beagle, plasma; dog PO, Intermediate 3 in PEG400 capsules (2 mg/kg); read-out: Bioavailability (% F)
readout type: bioavailability (%)
I only need the number, in %, no unit after it.

Recorded bioavailability for OC(CNc1nc(-c2cc(-c3ccon3)n(Cc3ccccc3F)n2)ncc1F)(C(F)(F)F)C(F)(F)F [Intermediate 3] , please? 64

* * *

- assay summary: Rat PK following intravenous and oral dosing
- Assay type: in vivo, male Sprague-Dawley rats
- measurement parameters: male, Sprague-Dawley, plasma, Compound I-1 1 mg/kg IV in PBS, analyte Compound I-1
readout type: Cmax (ng/mL)
Numeric only. Scale: ng/mL

Looking for the measured Cmax of O=P(O)(O)OC(CNc1nc(-c2cc(-c3ccon3)n(Cc3ccccc3F)n2)ncc1F)(C(F)(F)F)C(F)(F)F , can you help? 2780

* * *

- assay summary: Dog PK following IV and oral dosing
- Type: in vivo, male Beagle dogs
- measurement parameters: male, Beagle, plasma; dog, Compound I-1 0.36 mpk IV in PBS; analyte Compound I-1
readout type: Cmax (µg/mL)
Give a bare numeral; the unit µg/mL is implied.

Which Cmax reading was recorded for the molecule O=P(O)(O)OC(CNc1nc(-c2cc(-c3ccon3)n(Cc3ccccc3F)n2)ncc1F)(C(F)(F)F)C(F)(F)F ? 5.11

* * *

- assay summary: Rat PK following intravenous and oral dosing
- Type: in vivo, male Sprague-Dawley rats
- measurement parameters: plasma, Intermediate 3 dosed 1 mg/kg IV in PEG
readout type: clearance (mL/min/kg)
Numeric answer only, unit mL/min/kg assumed.

Recorded clearance for OC(CNc1nc(-c2cc(-c3ccon3)n(Cc3ccccc3F)n2)ncc1F)(C(F)(F)F)C(F)(F)F [Intermediate 3] , please? 16

* * *

- assay summary: Rat PK following intravenous and oral dosing
- Format: in vivo, male Sprague-Dawley rats
- measurement parameters: plasma, Intermediate 3 dosed 3.0 mg/kg PO
readout type: Cmax

So what does the record say about Cmax for OC(CNc1nc(-c2cc(-c3ccon3)n(Cc3ccccc3F)n2)ncc1F)(C(F)(F)F)C(F)(F)F [Intermediate 3] ? 250 ng/mL

* * *

- system: sGC enzyme (Homo sapiens, UniProt Q02108+Q02153)
- Construct: sGC enzyme activity values in HEK cells, determined by the GloSensor assay; host or cells: HEK293 expressing GloSensor 40F cGMP
- assay summary: cGMP GloSensor cell-based assay, 384-well format
- measurement parameters: HEK293 GloSensor 40F cGMP cells, 10 μM DETA-NONOate; prodrug; read-out: Absolute EC50
readout type: pEC50
// returns pEC50 (minus log10 of molar concentration), number only

GET /values?readout=pEC50&item= O=P(O)(O)OC(CNc1nc(-c2cc(-c3ccon3)n(Cc3ccccc3F)n2)ncc1F)(C(F)(F)F)C(F)(F)F [Compound I-1] 5.31

* * *

- assay summary: Rat PK following intravenous and oral dosing
- Format: in vivo, male Sprague-Dawley rats
- measurement parameters: plasma, Intermediate 3 dosed 1 mg/kg IV in PEG
readout type: Cmax (ng/mL)
Report only the number, with the unit ng/mL understood.

Consider the molecule shown here: OC(CNc1nc(-c2cc(-c3ccon3)n(Cc3ccccc3F)n2)ncc1F)(C(F)(F)F)C(F)(F)F [Intermediate 3] What is its recorded Cmax? 227

* * *

- system: sGC enzyme (Homo sapiens, UniProt Q02108+Q02153)
- Construct: sGC enzyme activity values in HEK cells, determined by the GloSensor assay; host or cells: HEK293 expressing GloSensor 40F cGMP
- assay summary: cGMP GloSensor cell-based assay, 384-well format
- measurement parameters: HEK293 GloSensor 40F cGMP cells, 10 μM DETA-NONOate; Parent compound column; read-out: Absolute EC50
readout type: pEC50
The value called pEC50 is obtained by taking minus log10 of the concentration in mol/L.

Given the entry OC(CNc1nc(-c2cc(-c3ccon3)n(Cc3ccccc3F)n2)ncc1F)(C(F)(F)F)C(F)(F)F [Intermediate 3] , report its measured pEC50. 7.14

* * *

- assay summary: Rat PK following intravenous and oral dosing
- Format: in vivo, male Sprague-Dawley rats
- measurement parameters: male, Sprague-Dawley, plasma, Compound I-1 1 mg/kg IV in PBS, analyte Compound I-1
readout type: clearance (mL/min/kg)
Write the answer as a number in mL/min/kg, unit excluded.

Value lookup for clearance; key = O=P(O)(O)OC(CNc1nc(-c2cc(-c3ccon3)n(Cc3ccccc3F)n2)ncc1F)(C(F)(F)F)C(F)(F)F 34.3

* * *

- assay summary: Dog PK following IV and oral dosing
- Format: in vivo, male Beagle dogs
- measurement parameters: male, Beagle, plasma; dog PO, Intermediate 3 in PEG400 capsules (2 mg/kg)
readout type: Tmax (h)
Please give a number only; it is taken to be in h.

Would you kindly share the measured Tmax for OC(CNc1nc(-c2cc(-c3ccon3)n(Cc3ccccc3F)n2)ncc1F)(C(F)(F)F)C(F)(F)F [Intermediate 3] ? 1.5

* * *

- system: soluble guanylate cyclase (sGC) (Homo sapiens, UniProt Q02108+Q02153)
- Construct: endogenously expressing soluble guanylate cyclase (sGC); endogenous in cells; host or cells: HEK293
- Sequence (Q02153 1-619): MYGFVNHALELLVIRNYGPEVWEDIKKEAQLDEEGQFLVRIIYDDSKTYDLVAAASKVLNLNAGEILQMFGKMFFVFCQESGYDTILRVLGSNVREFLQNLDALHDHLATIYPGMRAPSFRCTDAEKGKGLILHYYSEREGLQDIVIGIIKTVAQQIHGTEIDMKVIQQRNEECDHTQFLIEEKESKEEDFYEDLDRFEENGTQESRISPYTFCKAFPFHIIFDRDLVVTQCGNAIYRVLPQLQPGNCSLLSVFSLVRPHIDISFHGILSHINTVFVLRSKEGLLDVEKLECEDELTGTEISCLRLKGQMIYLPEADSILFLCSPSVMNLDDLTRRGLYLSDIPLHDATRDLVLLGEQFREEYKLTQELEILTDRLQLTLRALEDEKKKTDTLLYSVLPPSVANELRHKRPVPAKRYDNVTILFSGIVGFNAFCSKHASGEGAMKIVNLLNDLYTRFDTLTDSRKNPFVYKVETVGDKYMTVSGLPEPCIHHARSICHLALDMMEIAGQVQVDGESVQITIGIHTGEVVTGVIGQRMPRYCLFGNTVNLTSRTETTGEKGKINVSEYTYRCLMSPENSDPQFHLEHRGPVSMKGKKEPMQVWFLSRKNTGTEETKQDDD
- Sequence (Q02108 1-690): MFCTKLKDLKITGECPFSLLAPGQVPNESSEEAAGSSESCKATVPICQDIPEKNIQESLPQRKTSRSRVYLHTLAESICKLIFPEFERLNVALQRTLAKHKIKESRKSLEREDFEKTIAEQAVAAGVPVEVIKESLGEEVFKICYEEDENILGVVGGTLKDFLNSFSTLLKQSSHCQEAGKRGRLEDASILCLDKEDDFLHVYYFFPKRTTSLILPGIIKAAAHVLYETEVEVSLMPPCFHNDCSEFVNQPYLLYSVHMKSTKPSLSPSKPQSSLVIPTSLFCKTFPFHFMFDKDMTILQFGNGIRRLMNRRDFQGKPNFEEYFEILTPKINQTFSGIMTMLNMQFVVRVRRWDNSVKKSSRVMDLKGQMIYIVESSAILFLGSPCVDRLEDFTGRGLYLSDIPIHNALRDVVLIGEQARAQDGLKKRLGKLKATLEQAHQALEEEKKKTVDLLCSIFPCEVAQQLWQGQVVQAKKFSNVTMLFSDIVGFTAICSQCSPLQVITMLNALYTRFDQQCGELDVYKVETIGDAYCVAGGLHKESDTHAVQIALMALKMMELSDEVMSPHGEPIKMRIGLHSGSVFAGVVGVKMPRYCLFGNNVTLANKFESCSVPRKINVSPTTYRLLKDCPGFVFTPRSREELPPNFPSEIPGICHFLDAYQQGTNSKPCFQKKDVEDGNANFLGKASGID
- assay summary: sGC-HEK-cGMP assay with LC/MS detection
- Assay type: cell-based
- measurement parameters: HEK293 cells, 10 μM DETA-NONOate, cGMP by LC/MS; Parent compound column; read-out: Absolute EC50
readout type: pEC50
Value format note: pEC50 is -log10 of concentration (mol/L); just state the number.

I have this molecule here, OC(CNc1nc(-c2cc(-c3ccon3)n(Cc3ccccc3F)n2)ncc1F)(C(F)(F)F)C(F)(F)F [Intermediate 3] , and I need its recorded pEC50. 6.66

* * *

- assay summary: Dog PK following IV and oral dosing
- Assay type: in vivo, male Beagle dogs
- measurement parameters: male, Beagle, plasma; dog PO, Intermediate 3 in PEG400 capsules (2 mg/kg)
readout type: AUC (ng·h/mL)
Give just the numeric value; ng·h/mL need not be written.

What value of AUC has been recorded for this entry: OC(CNc1nc(-c2cc(-c3ccon3)n(Cc3ccccc3F)n2)ncc1F)(C(F)(F)F)C(F)(F)F [Intermediate 3] 5190

* * *

Reported values of half-life for individual entries
- assay summary: Ex-vivo rat intestinal fluid stability assay
- Assay type: in vitro ADME
- Set-up: dose or concentration left out as unconfirmed
- measurement parameters: rat intestinal (jejunum) fluid, 37° C., read-out: disappearance half-life (T1/2)
Dear colleague, please return just the value in min, with no unit written.

Consider the reported half-life for these compounds:
>>> result_number("O=C1NC(c2ccccc2)(c2ccccc2)C(=O)N1COP(=O)(O)O")
5
>>> result_number("O=P(O)(O)OC(Cn1cncn1)(Cn1cncn1)c1ccc(F)cc1F")
211
>>> result_number("O=P(O)(O)OCOC(CNc1nc(-c2cc(-c3ccon3)n(Cc3ccccc3F)n2)ncc1F)(C(F)(F)F)C(F)(F)F")
9

Which half-life value belongs to O=P(O)(O)OC(CNc1nc(-c2cc(-c3ccon3)n(Cc3ccccc3F)n2)ncc1F)(C(F)(F)F)C(F)(F)F ? 16

What value of measured half-life is listed for COc1cc(Nc2ncc(F)c(Nc3ccc4c(n3)N(COP(=O)(O)O)C(=O)C(C)(C)O4)n2)cc(OC)c1OC ? 34

Reference for the values: patent US10927136B2
